Tested on: Protein-tyrosine kinase 6 (Homo sapiens)
Sequence (Q13882 whole entry): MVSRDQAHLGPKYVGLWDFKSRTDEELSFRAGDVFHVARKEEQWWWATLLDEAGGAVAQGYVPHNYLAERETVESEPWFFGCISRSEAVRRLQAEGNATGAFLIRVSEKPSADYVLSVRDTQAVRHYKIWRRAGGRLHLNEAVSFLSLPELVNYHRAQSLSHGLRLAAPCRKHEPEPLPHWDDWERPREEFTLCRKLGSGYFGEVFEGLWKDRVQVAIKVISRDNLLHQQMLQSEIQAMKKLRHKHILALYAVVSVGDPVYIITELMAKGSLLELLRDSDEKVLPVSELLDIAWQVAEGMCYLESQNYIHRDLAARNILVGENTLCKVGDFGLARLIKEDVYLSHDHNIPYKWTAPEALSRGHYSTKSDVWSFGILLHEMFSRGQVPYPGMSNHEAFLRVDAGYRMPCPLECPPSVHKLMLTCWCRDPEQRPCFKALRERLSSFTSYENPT
Experiment description: Inhibition of PTK6 (unknown origin) expressed in HEK293 cells assessed as decrease in tyrosine phosphorylation by chemiluminescence assay
Assay type: cell-based
Field: pIC50. Provide a value for each of the molecules that follow.
Field pIC50 (float): negative decimal logarithm of the concentration in molar.

// query Quick one: pIC50 of COc1cc(Br)cc(/C=N/c2ccc3[nH]c(=O)[nH]c3c2)c1O ?
// result 4.28

// query Quick one: pIC50 of COc1cc(Br)c(Br)c(/C=N/c2ccc3scnc3c2)c1O ?
// result 5.34

// query Quick one: pIC50 of CCOc1cc(Br)c(Br)c(/C=N/c2ccc3[nH]c(=O)[nH]c3c2)c1O ?
// result 5.80

// query Quick one: pIC50 of COc1cc(Br)c(Br)c(/C=N/c2ccc3[nH]cnc3c2)c1O ?
// result 5.26

// query Quick one: pIC50 of O=c1[nH]c2ccc(/N=C/c3c(O)cccc3Br)cc2[nH]1 ?
// result 4.61

// query Quick one: pIC50 of CCOc1cc(Cl)c(Cl)c(/C=N/c2ccc3[nH]c(=O)[nH]c3c2)c1O ?
// result 5.46

// query Quick one: pIC50 of COc1cc(Br)c(Br)c(/C=N/c2ccc3[nH]c(=O)[nH]c3c2)c1O ?
// result 5.84

// query Quick one: pIC50 of CCOc1cc(Br)c(Br)c(/C=N/c2ccc3scnc3c2)c1O ?
// result 5.60

----------
Tested on: Protein-tyrosine kinase 6 (Homo sapiens)
Experiment description: Inhibition of GST-tagged PTK6 (unknown origin) assessed as phosphorylated tyrosines after 20 mins by ELISA
Quantity name: IC50 (nM)
Please reply with the bare figure in nM and do not write the unit itself.

// query Quick one: IC50 of O=c1[nH]c2ccc(/N=C/c3c(O)c(Br)cc(Br)c3Br)cc2[nH]1 ?
// result 410

// query Quick one: IC50 of O=c1[nH]c2ccc(/N=C/c3cc(Cl)ccc3O)cc2[nH]1 ?
// result 1410

// query Quick one: IC50 of COc1cc(Br)c(Br)c(/C=N/c2ccc3[nH]c(=O)[nH]c3c2)c1O ?
// result 120

// query Quick one: IC50 of CCOc1cc(Br)c(Br)c(/C=N/c2ccc3[nH]cnc3c2)c1O ?
// result 130

// query Quick one: IC50 of CCOc1cc(Cl)cc(/C=N/c2ccc3[nH]c(=O)[nH]c3c2)c1O ?
// result 1990

// query Quick one: IC50 of CCOc1cc(Br)c(Br)c(/C=N/c2ccc3[nH]ccc3c2)c1O ?
// result 360

// query Quick one: IC50 of CCOc1cc(Cl)c(Cl)c(/C=N/c2ccc3[nH]c(=O)[nH]c3c2)c1O ?
// result 1290

// query Quick one: IC50 of COc1ccc(Br)c(/C=N/c2ccc3[nH]c(=O)[nH]c3c2)c1O ?
// result 3900

----------
Quantity name: pIC50
Field pIC50 (float): negative decimal logarithm of the concentration in molar.

// query Provide value of pIC50 for this record tested with Epidermal growth factor receptor (Homo sapiens): COc1cc(Br)c(Br)c(/C=N/c2ccc3[nH]c(=O)[nH]c3c2)c1O
Sequence (P00533 whole entry): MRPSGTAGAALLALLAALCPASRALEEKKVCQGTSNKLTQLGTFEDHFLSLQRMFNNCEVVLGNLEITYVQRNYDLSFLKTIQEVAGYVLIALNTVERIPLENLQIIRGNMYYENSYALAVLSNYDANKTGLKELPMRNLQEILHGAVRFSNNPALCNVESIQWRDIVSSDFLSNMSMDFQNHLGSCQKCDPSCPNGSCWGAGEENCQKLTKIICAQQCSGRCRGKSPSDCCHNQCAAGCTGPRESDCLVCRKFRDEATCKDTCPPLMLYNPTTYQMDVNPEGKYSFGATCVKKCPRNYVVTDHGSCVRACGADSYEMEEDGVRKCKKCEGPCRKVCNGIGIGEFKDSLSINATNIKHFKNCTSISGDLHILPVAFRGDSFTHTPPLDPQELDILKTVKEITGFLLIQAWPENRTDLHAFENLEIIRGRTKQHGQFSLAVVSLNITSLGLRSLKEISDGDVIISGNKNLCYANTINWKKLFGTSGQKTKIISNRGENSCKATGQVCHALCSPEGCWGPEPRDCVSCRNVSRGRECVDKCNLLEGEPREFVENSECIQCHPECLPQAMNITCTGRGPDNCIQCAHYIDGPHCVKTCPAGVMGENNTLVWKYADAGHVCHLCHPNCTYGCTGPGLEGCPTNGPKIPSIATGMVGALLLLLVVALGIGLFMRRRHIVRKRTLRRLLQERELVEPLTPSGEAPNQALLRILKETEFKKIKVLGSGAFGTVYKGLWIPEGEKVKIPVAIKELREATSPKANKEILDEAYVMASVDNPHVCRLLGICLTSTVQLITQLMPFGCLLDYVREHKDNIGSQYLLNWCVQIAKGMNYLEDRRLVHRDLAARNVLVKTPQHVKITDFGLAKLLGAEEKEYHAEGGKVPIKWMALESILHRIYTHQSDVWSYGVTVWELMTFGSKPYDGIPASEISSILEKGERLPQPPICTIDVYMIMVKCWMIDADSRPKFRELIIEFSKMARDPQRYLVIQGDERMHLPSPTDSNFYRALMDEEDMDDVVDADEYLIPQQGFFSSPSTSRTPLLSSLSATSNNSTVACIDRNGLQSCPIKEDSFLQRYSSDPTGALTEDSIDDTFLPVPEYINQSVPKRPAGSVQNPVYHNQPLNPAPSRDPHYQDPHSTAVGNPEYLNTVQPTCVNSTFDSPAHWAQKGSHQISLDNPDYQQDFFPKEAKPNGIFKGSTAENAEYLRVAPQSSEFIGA
// result 4.05

// query Provide value of pIC50 for this record tested with Epidermal growth factor receptor (Homo sapiens): CCOc1cc(Br)c(Br)c(/C=N/c2ccc3[nH]c(=O)[nH]c3c2)c1O
// result 4.12
